B1: library; numbered along this chain (parent)
chain: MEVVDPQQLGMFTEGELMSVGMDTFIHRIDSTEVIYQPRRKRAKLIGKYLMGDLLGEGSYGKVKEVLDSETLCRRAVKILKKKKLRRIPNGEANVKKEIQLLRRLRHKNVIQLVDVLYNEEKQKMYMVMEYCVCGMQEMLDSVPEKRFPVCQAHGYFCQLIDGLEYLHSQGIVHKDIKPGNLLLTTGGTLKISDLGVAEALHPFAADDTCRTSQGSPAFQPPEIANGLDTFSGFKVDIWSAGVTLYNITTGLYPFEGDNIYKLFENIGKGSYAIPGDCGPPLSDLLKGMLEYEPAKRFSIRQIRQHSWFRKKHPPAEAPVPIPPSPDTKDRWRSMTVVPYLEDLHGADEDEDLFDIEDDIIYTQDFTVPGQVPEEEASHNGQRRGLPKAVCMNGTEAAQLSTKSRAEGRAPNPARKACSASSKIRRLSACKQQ

variants of: B1; experiment: STK11 functional score (HeLa growth suppression), rescaled enrichment; synonymous median = 1, nonsense median = 0 (normalised score); conditions: with HeLa; variant type: missense
Mark yes for reported STK11 functional score of 1 or greater; mark no for anything smaller.

# example entries with known answers
>>> discrete_label("P280D")
"yes"
>>> discrete_label("D330G")
"yes"
>>> discrete_label("R333F")
"no"
>>> discrete_label("V20D")
"yes"
>>> discrete_label("A429V")
"yes"
>>> discrete_label("V173I")
"yes"

Input: Decide: STK11 functional score of Q123R >= 1?
Output: no

Input: Is it the case that K96W has STK11 functional score reaching or exceeding 1?
Output: no
